molecular target: Human ASK1 (Homo sapiens, UniProt Q99683); construct: expressed in transfected cells; host or cells: HEK293T-AP1; assay: ASK1 Cell Based Assay (phospho p38 read out in hASK1 transfected HEK293T-AP1 cells); settings: HEK293T-AP1 cells, 1 mM hydrogen peroxide, phospho p38; read-out: Cell Based Assay IC50
Sequence (Q99683 whole entry): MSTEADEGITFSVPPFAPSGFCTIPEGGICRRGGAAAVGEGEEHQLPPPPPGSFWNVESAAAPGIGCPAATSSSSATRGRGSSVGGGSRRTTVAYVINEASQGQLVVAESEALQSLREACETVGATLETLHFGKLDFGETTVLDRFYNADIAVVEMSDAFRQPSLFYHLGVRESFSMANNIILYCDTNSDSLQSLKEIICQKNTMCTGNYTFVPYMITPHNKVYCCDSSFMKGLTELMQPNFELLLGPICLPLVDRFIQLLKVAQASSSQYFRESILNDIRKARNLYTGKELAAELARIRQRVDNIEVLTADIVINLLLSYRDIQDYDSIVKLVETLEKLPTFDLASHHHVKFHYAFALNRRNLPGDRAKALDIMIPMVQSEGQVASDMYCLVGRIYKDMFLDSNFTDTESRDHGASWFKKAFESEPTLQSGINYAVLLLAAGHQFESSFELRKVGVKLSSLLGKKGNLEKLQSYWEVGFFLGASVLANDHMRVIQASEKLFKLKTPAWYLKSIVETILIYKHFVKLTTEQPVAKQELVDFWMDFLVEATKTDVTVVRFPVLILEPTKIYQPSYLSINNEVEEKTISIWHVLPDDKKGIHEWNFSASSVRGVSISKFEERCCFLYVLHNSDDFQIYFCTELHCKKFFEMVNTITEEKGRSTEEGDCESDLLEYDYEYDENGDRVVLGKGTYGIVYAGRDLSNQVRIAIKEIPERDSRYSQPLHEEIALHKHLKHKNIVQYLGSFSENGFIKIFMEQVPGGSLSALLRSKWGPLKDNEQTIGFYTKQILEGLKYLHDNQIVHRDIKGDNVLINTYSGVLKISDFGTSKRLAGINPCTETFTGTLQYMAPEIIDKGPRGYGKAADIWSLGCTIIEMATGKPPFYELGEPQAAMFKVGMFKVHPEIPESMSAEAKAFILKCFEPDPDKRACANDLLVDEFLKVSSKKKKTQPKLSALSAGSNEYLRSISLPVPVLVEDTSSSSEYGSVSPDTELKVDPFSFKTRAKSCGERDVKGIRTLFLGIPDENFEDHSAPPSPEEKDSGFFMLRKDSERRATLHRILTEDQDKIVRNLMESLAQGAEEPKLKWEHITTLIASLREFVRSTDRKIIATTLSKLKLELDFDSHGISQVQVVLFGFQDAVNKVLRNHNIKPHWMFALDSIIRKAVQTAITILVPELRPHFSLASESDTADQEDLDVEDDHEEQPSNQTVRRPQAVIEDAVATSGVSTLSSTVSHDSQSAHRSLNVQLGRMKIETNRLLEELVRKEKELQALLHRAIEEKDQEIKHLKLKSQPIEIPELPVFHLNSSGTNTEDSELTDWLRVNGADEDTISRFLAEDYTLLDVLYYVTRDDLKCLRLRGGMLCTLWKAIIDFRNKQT
pIC50: −log10 of the molar value.
Kindly supply the reported pIC50 values for the records listed here.

Example cases with answers are listed next.
> print(dat)
                                   molecule  result
1  CC(C)n1cnnc1-c1cccc(N2CCN(c3ccc(S(C)(=O)=O)s3)C2=O)n1 [Example 1123]  < 6.00
2  CNC(=O)C1CCN(c2ccc(N3CCN(c4cccc(-c5nncn5C(C)C)n4)C3=O)cc2)CC1 [Example 1082]  > 7.00
3  CC(C)n1cnnc1-c1cccc(N2CCN(c3ccc(NC4CCOC4)cc3)C2=O)n1 (stereo not shown) [Example 1133]  < 6.00
4  COc1cc(S(C)(=O)=O)c(C)cc1N1CCN(c2cccc(-c3nncn3C(C)C)n2)C1=O [Example 1055]  < 6.00
5  CC(C)n1cnnc1-c1cccc(N2CCNC2=O)n1 [Example 1022]  < 6.00

State recorded pIC50 for all listed molecules.
1. CC(C)n1cnnc1-c1cccc(N2CCN(c3ccc(C4CCN(S(C)(=O)=O)CC4)cc3)C2=O)n1 [Example 1084]
2. CC(C)n1cnnc1-c1cccc(N2CCN(c3ccc(S(C)(=O)=O)c(C4CC4)c3)C2=O)n1 [Example 1059]
3. CC(C)n1cnnc1-c1cccc(N2CCN(c3ccc(C(=O)N4CC(C#N)C4)cc3)C2=O)n1 [Example 1095]

["< 6.00", "< 6.00", "< 6.00"]

----------
target: recombinant ASK1 (Homo sapiens, UniProt Q99683); construct: purchased Carna Biosciences; experiment: ASK1 Biochemical Assay (HTRF KinEASE-STK S3); settings: ATP 100 μM; read-out: Biochemical Assay IC50
Sequence (Q99683 654-971 limits assumed): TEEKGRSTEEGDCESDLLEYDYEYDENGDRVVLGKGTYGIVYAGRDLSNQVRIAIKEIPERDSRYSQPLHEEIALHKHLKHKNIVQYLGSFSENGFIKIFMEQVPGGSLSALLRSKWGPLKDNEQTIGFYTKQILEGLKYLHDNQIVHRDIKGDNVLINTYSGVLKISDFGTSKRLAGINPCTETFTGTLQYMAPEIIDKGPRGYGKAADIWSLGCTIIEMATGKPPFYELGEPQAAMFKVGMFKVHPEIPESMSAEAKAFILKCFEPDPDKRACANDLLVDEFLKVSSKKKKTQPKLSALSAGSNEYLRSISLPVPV
pIC50: −log10 of the molar value.
READOUT KIND: pIC50

Below are worked cases with known answers.
> print(dat)
                                   compound  result
1  CNC(=O)C1CCN(c2ccc(N3CCN(c4cccc(-c5nncn5C(C)C)n4)C3=O)cn2)C1 (stereo not shown) [Example 1119]  > 7.30
2  COc1cc(C)c(-c2ccc(S(C)(=O)=O)cc2)cc1N1CCN(c2cccc(-c3nncn3C(C)C)n2)C1=O [Example 1026]  < 7.00
3  CC(C)n1cnnc1-c1cccc(N2CCN(c3ccc4c(c3)C(C)(C)CS4(=O)=O)C2=O)n1 [Example 1124]  > 7.00
4  CC(C)n1cnnc1-c1cccc(N2CCN(c3cccc(-c4ccc(S(C)(=O)=O)cc4)c3)C2=O)n1 [Example 1007]    7.52
5  CC(C)n1cnnc1-c1cccc(N2CCN(c3ccc(F)c(C4CC4)c3)C2=O)n1 [Example 1060]  > 7.00

// each listed compound needs a value for pIC50
1. CC(C)n1cnnc1-c1cccc(N2CCN(c3cccc(-c4ccc(C#N)cc4)c3)C2=O)n1 [Example 1016]
2. CC(C)n1cnnc1-c1cccc(N2CCN(c3ccc(C(=O)N4CC(C#N)C4)cc3)C2=O)n1 [Example 1095]

1. < 6.00
2. > 7.00

Taken from patent US20220332700A1.
